# Lookup of reported TGI keyed by entry
# Test system: CAKI-1 renal
# ASSAY NOTES: NCI tumour cell line growth inhibition, 48 h

Here are 4 compounds together with their reported answers.
>>> experimental_result("O=C(C=P(c1ccccc1)(c1ccccc1)c1ccccc1)C12CC3CC(CC(C3)C1)C2")
"33.6 µM"
>>> experimental_result("CO/C(=N\\N=C(/C)C(F)(F)F)c1ccncc1")
"> 100 µM"
>>> experimental_result("NCCC1(N)CCNCC1")
"> 100 µM"
>>> experimental_result("O=c1cnn(C2OC(CO)C(O)C(F)C2O)c(=O)[nH]1 (stereo not given)")
"> 100 µM"

Exercise: Item under review: `O=[N+]([O-])/C(C(Cl)=C(Cl)Cl)=C1\Nc2ccccc2O1` . Reported TGI?
Key: > 100 µM

Exercise: Ok, now `CCC1(O)C=CC(=O)C=C1`
Key: > 100 µM

Exercise: Ok, now CC(C)(C)C1CCC2c3c([nH]c4ccccc34)C3C(=O)N(c4cc(Br)cc(Br)c4)C(=O)C3C2C1 (stereo not given)
Key: 66.6 µM
